- tgt: Brd4 bromodomain 1 (Homo sapiens)
- Construct: made in house; host or cells: E. coli BL21(DE3)
- protocol_description: Inhibition of binding of tetra-acetylated histone H4 and Brd4 bromodomain 1 by TR-FRET
- run_conditions: His-tagged bromodomain 200 nM, biotinylated tetra-acetylated histone H4 peptide 25-50 nM, 2 hours at room temperature
assay_endpoint: FRET activity (<50 uM)

Example compounds with recorded FRET activity (<50 uM):
COc1cc(OC)c2c(=O)[nH]c(-c3ccc4c(c3)OCCO4)nc2c1 :: Active
COc1cc(OC)c2c(=O)[nH]c(-c3cc(C)c(OCCNS(=O)(=O)c4ccccc4)c(C)c3)nc2c1 :: Inactive
COc1cc(OC)c2c(=O)[nH]c(-c3cc(C)c(OCCNC(=O)c4ccc(C)cc4)c(C)c3)nc2c1 :: Active
COc1cc(OC)c2c(=O)[nH]c(-c3ccc(CN4CCN(C)CC4)cc3)nc2c1 :: Active

Per the records, this compound ( `COc1cc(OC)c2c(=O)[nH]c(-c3cc(C)nc(Cl)c3)nc2c1` ) has FRET activity (<50 uM) equal to Inactive

// recorded FRET activity (<50 uM) for `CC(=O)Nc1ccc2nc(-c3cc(C)c(O)c(C)c3)[nH]c(=O)c2c1` : Inactive

Per the record, `COc1cc(OC)c2c(=O)[nH]c(-c3cc(C)c(OCCNC(=O)c4ccccc4)c(C)c3)nc2c1` has FRET activity (<50 uM) of Active

Measured FRET activity (<50 uM), `O=c1[nH]c(-c2ccc(N(CCO)CCO)cc2)nc2ccccc12` : Inactive

Taken from patent US20130281397A1.
